Assay target: FAD-linked sulfhydryl oxidase ALR (Homo sapiens)
Sequence (P55789 whole entry): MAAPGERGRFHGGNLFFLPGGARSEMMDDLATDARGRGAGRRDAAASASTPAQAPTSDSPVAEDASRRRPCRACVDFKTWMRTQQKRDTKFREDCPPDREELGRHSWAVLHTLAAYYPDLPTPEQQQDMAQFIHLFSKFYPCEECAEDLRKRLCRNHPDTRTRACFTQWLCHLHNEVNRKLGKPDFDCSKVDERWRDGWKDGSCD
Assay comment: inhibitors of human ALR sulfhydryl oxidase, dose response, biochemical, H2O2 detection, luminescence, cherry-pick (AID 493248)
Calls of active or inactive are those of the source. No stated cut-off is given here; in the data, actives have a measured AC50 and inactives only a lower limit.
Measured property: AC50

Cc1cccc(CS(=O)(=O)c2ncc(Cl)c(C(=O)Nc3c(C)cccc3C)n2)c1 ... 0.164 µM (active)
COc1ccc(N2CCN(C(=O)c3ccc(SC)cc3OC)CC2)cc1 ... 6.05 µM (active)
CC1(CCC(=O)N2CCCC(Nc3ccc(F)cc3)C2)CC1 (stereo not given) ... 5.27 µM (active)

Q: Which value of AC50 has been reported for Cc1ccc(NC2CCCN(C(=O)c3cn4cccc(C)c4n3)C2)cc1C (stereo not given) in the records?
Result: 9.91 µM (active)

Q: Then "O=C1NC(=O)N(Cc2ccc(F)cc2)C(=O)/C1=C/NNc1ccccc1" ?
Result: 0.438 µM (active)

Q: Then "COc1ccc(/C=N/NC(=O)c2ccncc2)cc1CN1CCN(c2ccc(F)cc2)CC1" ?
Result: 7.46 µM (active)

Q: Then "CN1CCN(c2ccc(N)cc2)CC1" ?
Result: 3.83 µM (active)

Q: Then "O=C(NN=C1CCCC1)c1cc(-c2ccccc2)[nH]n1" ?
Result: 16.9 µM (active)

Q: Then "Cc1ccc(N/N=C(\C#N)C(=N)N2CCCCC2)cc1" ?
Result: 0.228 µM (active)

Q: Then "O=C(NNS(=O)(=O)c1ccc(F)cc1)c1cc2ccccc2cc1O" ?
Result: 4.07 µM (active)
